- experimental.protocol: Metabolic stability in human saliva assessed as biotransformation after 24 hrs relative to unaltered compound
- Assay type: ADME
- test.parameters: read-out: Activity
measurement.name: metabolised at 24 h

CCOC(=O)C[C@@H](C[N+](C)(C)C)OC(=O)CCCCCO[N+](=O)[O-].[Cl-] 100%
C[N+](C)(C)C[C@H](CC(=O)O)OC(=O)CCCCCO[N+](=O)[O-].[Cl-] 100%
CCOC(=O)C[C@@H](C[N+](C)(C)C)OC(=O)CCCCCCCCCCCCCCCO[N+](=O)[O-].[Cl-] 75%

Shifting focus to the compound that follows.
query: GET /values?readout=metabolised at 24 h&item= C[N+](C)(C)C[C@H](CC(=O)O)OC(=O)CCCCCCCCCCCCCCCO[N+](=O)[O-].[Cl-]
result: 100%
